Where do the numbers come from? From patent US11814445B2.

study_system: human PCSK9 / human LDLR EGFa domain (Homo sapiens)
Sequence (Q8NBP7 153-692): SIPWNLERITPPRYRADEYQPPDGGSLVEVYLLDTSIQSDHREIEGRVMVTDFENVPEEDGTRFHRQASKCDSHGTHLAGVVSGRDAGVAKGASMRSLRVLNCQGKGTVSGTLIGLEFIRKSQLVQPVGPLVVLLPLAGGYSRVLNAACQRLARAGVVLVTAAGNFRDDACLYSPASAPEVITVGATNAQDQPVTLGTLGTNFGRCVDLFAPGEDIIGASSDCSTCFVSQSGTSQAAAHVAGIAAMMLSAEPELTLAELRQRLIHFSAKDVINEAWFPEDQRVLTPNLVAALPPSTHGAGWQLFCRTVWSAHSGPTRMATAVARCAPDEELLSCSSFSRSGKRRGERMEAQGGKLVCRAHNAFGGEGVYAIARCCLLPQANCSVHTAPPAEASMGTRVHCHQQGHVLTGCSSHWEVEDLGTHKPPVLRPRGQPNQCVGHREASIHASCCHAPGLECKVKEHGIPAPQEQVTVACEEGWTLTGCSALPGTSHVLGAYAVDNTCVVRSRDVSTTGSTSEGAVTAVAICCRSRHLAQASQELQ
assay_details: TR-FRET assay of inhibition of the PCSK9-LDLR protein-protein interaction
assay_setup: 20 nM human PCSK9, 20 nM human LDLR EGFa domain, 2 hours room temperature
Method: A time-resolved fluorescence resonance energy (TR-FRET) assay was used to measure inhibition of the PCSK9-LDLR protein-protein interaction. […] Compounds were tested in dose-response and concentrations giving half-maximal inhibition calculated using a 4-parameter fit equation.
Numbered stars: 1 amine (or outer) side, 2 acyl side, 3 side chain; on linkers, the order of the positions; unused ones are H or OH. Bridge positions count the residues as written; N and C are the ends. Square brackets hold non-standard residues; d marks the D form. Peptide text beside a SMILES is read from it. Trp(5-F) = N[C@@H](Cc1c[nH]c2ccc(F)cc12)C(=O)O; Phe(3-CN) = N#Cc1cccc(C[C@H](N)C(=O)O)c1; X1 = O=C(CCSCc1cccc(CSCCN[*:1])c1)[*:2]; 1Nal = N[C@@H](Cc1cccc2ccccc12)C(=O)O; mXylylene = c1cc(C[*:1])cc(C[*:2])c1; Igl = N[C@H](C(=O)O)C1Cc2ccccc2C1; NMeF = CN[C@@H](Cc1ccccc1)C(=O)O; Cha = N[C@@H](CC1CCCCC1)C(=O)O; αMeP = C[C@@]1(C(=O)O)CCCN1; Pip = O=C(O)[C@@H]1CCCCN1; Mpa = O=C(O)CCS
// reported IC50 for each item listed

Below are worked cases with known answers.
- compound: "C[C@@H]1NC(=O)CCSCc2cccc(c2)CSCCNC(=O)[C@@H]2CCCN2C(=O)[C@H](Cc2ccccc2)N(C)C(=O)[C@H](C)NC(=O)[C@@H]2CCCCN2C(=O)[C@H](Cc2c[nH]c3ccc(F)cc23)NC(=O)[C@H](Cc2c[nH]c3ccc(F)cc23)NC(=O)[C@@H](C)NC1=O [Compound 088] (cyclo(A[NMeF]P[X1]A[dA][Trp(5-F)][Trp(5-F)][Pip]))"
  value: "21000 to 50000 nM"
- compound: "C[C@@]12CCCN1C(=O)[C@H](Cc1ccc(O)cc1)NC(=O)[C@H](Cc1cnc[nH]1)NC(=O)[C@@H]1CCCN1C(=O)[C@H](Cc1c[nH]c3ccc(F)cc13)NC(=O)[C@H](CC1CCCCC1)NC(=O)CNC(=O)[C@H](CCCCN)NC(=O)CCSCc1cccc(c1)CSCCNC2=O [Compound 104] (cyclo([Cha][Trp(5-F)]PHY[αMeP][X1]KG))"
  value: "1000 to 12100 nM"
- compound: "C[C@@H]1NC(=O)[C@@H]2CCCN2C(=O)[C@H](C2Cc3ccccc3C2)NC(=O)[C@H](Cc2c[nH]c3ccc(F)cc23)NC(=O)CNC(=O)[C@H](CCCCN)NC(=O)CCSCc2cccc(c2)CSC[C@@H](C(N)=O)NC(=O)[C@@H]2CCCN2C(=O)[C@H](Cc2ccc(O)cc2)NC1=O [Compound 008] ([Mpa]KG[Trp(5-F)][Igl]PAYPC-NH2; linker 1-10 via mXylylene)"
  value: "100 to 1000 nM"

The compound C[C@@H]1NC(=O)[C@@H]2CCCN2C(=O)[C@H](Cc2c[nH]c3ccc(F)cc23)NC(=O)[C@H](Cc2c[nH]c3ccc(F)cc23)NC(=O)[C@@H](C)NC(=O)[C@@H]2CCCN2C(=O)CCSCc2cccc(c2)CSCCNC(=O)[C@@H]2CCCN2C(=O)[C@H](Cc2cccc3ccccc23)NC1=O [Compound 054] (cyclo([1Nal]P[X1]P[dA][Trp(5-F)][Trp(5-F)]PA)) on human PCSK9 / human LDLR EGFa domain (Homo sapiens): IC50 was 100 to 1000 nM

The compound COc1ccc(C[C@@H]2NC(=O)[C@H](C)NC(=O)[C@@H]3CCC(=O)NCc4cccc(c4)C[C@H](NC(=O)CNC(C)=O)C(=O)N[C@@H](Cc4cn(c5ccc(F)cc45)Cc4cn(nn4)CC[C@@H](C(N)=O)NC(=O)[C@]4(C)CCCN4C2=O)C(=O)N3)cc1 [Compound 127] on human PCSK9 / human LDLR EGFa domain (Homo sapiens): IC50 was 100 to 1000 nM

The compound C[C@@H]1NC(=O)[C@@H]2CCCN2C(=O)[C@H](Cc2cccc(C#N)c2)NC(=O)[C@H](Cc2c[nH]c3ccc(F)cc23)NC(=O)CNC(=O)[C@H](CCCCN)NC(=O)CCSCc2cccc(c2)CSC[C@@H](C(N)=O)NC(=O)[C@@H]2CCCN2C(=O)[C@H](Cc2ccc(O)cc2)NC1=O [Compound 015] ([Mpa]KG[Trp(5-F)][Phe(3-CN)]PAYPC-NH2; linker 1-10 via mXylylene) on human PCSK9 / human LDLR EGFa domain (Homo sapiens): IC50 was 1 to 100 nM
